All figures here come from patent US8268848B2.

Target: OX1 (Homo sapiens, UniProt O43613)
Sequence (O43613 1-425): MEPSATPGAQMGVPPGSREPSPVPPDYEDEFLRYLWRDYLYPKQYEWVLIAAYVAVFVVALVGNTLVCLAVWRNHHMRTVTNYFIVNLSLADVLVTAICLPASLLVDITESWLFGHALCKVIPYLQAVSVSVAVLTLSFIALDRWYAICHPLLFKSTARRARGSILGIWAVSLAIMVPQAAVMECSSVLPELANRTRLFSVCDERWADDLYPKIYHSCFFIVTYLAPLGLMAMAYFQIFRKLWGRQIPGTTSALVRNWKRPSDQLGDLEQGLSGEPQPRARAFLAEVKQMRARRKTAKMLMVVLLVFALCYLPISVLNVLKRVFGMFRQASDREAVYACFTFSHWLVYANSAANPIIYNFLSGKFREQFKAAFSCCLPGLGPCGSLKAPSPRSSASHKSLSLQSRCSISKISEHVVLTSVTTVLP
Assay: Measurement of orexin receptor-binding ability ([125I]-OX-A, cell membranes, OX1)
Set-up: expressed in transfected cells; host or cells: CHO cells (membrane preparation)
Conditions: membranes of recombinant CHO cells expressing OX1, 0.2 nM [125I]-OX-A; read-out: OX1 (IC50)
Method: 1. Measurement of Orexin Receptor-Binding Ability The assay was carried out using a 96-well Wheat Germ Agglutinin Flash Plate (PerkinElmer). The volume in a single assay well was 100 ul, and the composition of the reaction solution was as follows: […] Cell membranes were prepared from recombinant CHO cells that expressed OX2 or OX1. […] Finally, the radioactivity of each well was measured using a scintillation counter (TopCount, PerkinElmer).
Readout Label: pIC50
Lab note — pIC50 values are minus log10 of concentrations in M.

Solved entries:
Molecule: CCc1nc(C)ncc1OC[C@@]1(c2ccccc2)C[C@H]1C(=O)Nc1ccccn1 [Example 118]
pIC50: 6.47

Molecule: Cc1ncc(OC[C@@]2(c3ccccc3)C[C@H]2C(=O)Nc2ccc(Cl)cc2)c(C)n1 [Example 25]
pIC50: 6.03

Molecule: Cc1ncc(OC[C@@]2(c3ccccc3)C[C@H]2C(=O)Nc2cccc(Cl)c2)c(C)n1 [Example 24]
pIC50: 7.55

Molecule: COc1cccc([C@]2(COc3cnc(C)nc3C)C[C@H]2C(=O)Nc2cc(C)c(F)cn2)c1 [Example 189]
pIC50: 8.15

Molecule: COc1cccc(C2(COc3cnc(C)nc3C)CC2C(=O)Nc2cccnc2)c1 (centres unmarked) [Example 184]
pIC50: 6.11

Molecule: COc1cc(NC(=O)[C@@H]2C[C@@]2(COc2cnc(C)nc2C)c2ccccc2)ncc1F [Example 73]
pIC50: 8.47

Molecule: Cc1ncc(OCC2(c3ccc(F)cc3)CC2C(=O)Nc2cccnc2)c(C)n1 (centres unmarked) [Example 103]
pIC50: 5.53

Molecule: Cc1ncc(OC[C@@]2(c3cc(F)cc(F)c3)C[C@H]2C(=O)Nc2ccc(F)cc2)c(C)n1 [Example 130]
pIC50: 7.66

Exercise: Requested read-out pIC50, target or system OX1 (Homo sapiens, UniProt O43613), entry Cc1ncc(OC[C@@]2(c3ccccc3)C[C@H]2C(=O)Nc2ccc(C(F)(F)F)cn2)c(C)n1 [Example 5]
Solution: 6.84

Exercise: Observed pIC50 on OX1 (Homo sapiens, UniProt O43613) for COCc1cc(NC(=O)[C@@H]2C[C@@]2(COc2cnc(C)nc2C)c2ccccc2)ncc1F [Example 71] , please.
Solution: 7.28

Exercise: Requested read-out pIC50, target or system OX1 (Homo sapiens, UniProt O43613), entry CCc1nc(C)ncc1OC[C@@]1(c2ccccc2)C[C@H]1C(=O)Nc1cncc(OC)c1 [Example 317]
Solution: 6.35

Exercise: Lab note: need pIC50 with OX1 (Homo sapiens, UniProt O43613) for entry Cc1ncc(OC[C@@]2(c3cccc(F)c3)C[C@H]2c2nc3ncccc3c(=O)[nH]2)c(C)n1 [Example 312] , please look it up.
Solution: 6.87

Exercise: Param readout= pIC50; system= OX1 (Homo sapiens, UniProt O43613); entry= Cc1ncc(OC[C@@]2(c3ccccc3)C[C@H]2C(=O)Nc2nc(C)c(C)s2)c(C)n1 [Example 4] ; returns value.
Solution: 7.26

Exercise: Item COc1cc(NC(=O)[C@@H]2C[C@@]2(COc2cnc(C)nc2C)c2cc(F)cc(F)c2)ncc1F [Example 138] with OX1 (Homo sapiens, UniProt O43613) - pIC50?
Solution: 8.59

Exercise: Provide value of pIC50 for this record tested with OX1 (Homo sapiens, UniProt O43613): Cc1ncc(OC[C@@]2(c3ccccc3)C[C@H]2C(=O)Nc2cccc(C(F)(F)F)c2)c(C)n1 [Example 43]
Solution: 7.07

Exercise: Kindly state the measured pIC50 obtained for Cc1ncc(OC[C@@]2(c3ccsc3)C[C@H]2C(=O)Nc2ccc(Cl)cn2)c(C)n1 [Example 269] with OX1 (Homo sapiens, UniProt O43613).
Solution: 6.58

Exercise: Notebook: pull reported pIC50 for OX1 (Homo sapiens, UniProt O43613), entry Cc1ncc(OC[C@@]2(c3ccccc3)C[C@H]2C(=O)Nc2ccnc(Cl)c2)c(C)n1 [Example 33]
Solution: 6.68

---

target: OX2 (Homo sapiens, UniProt O43614); test: Measurement of orexin receptor-binding ability ([125I]-OX-A, cell membranes, OX2); design: expressed in transfected cells; host or cells: CHO cells (membrane preparation); conditions: OX2 (IC50) nM, membranes of recombinant CHO cells expressing OX2, 0.2 nM [125I]-OX-A
Sequence (O43614 whole entry): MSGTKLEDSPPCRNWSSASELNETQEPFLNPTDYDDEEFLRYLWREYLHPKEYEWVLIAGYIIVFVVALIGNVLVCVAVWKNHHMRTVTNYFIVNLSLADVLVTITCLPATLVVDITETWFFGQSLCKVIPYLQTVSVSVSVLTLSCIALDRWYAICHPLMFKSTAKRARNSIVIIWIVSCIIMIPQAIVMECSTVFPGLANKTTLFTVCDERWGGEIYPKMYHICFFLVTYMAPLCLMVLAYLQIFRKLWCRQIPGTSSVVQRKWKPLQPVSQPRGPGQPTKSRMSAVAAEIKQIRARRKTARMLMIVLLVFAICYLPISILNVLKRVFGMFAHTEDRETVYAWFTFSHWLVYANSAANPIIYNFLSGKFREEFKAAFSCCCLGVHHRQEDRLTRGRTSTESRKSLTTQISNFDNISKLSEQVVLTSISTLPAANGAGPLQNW
Readout Label: IC50 (nM)
Form entry: value (nM) — number only.

Take a look at these entries with their results.
Molecule: CCc1nc(C)ncc1OC[C@@]1(c2cccc(F)c2)C[C@H]1C(=O)Nc1ccccn1 [Example 240]
Unit Text: nM
IC50: 2.9

Molecule: Cc1ncc(OC[C@@]2(c3ccccc3)C[C@H]2C(=O)Nc2ccccn2)c(C)n1 [Example 65]
Unit Text: nM
IC50: 81

Molecule: Cc1cccc(C2(COc3cnc(C)nc3C)CC2C(=O)Nc2ccc(F)cn2)c1 (stereo not shown) [Example 176]
Unit Text: nM
IC50: 26

Molecule: Cc1ncc(OC[C@@]2(c3ccccc3)C[C@H]2C(=O)Nc2cc(C(F)F)ccn2)c(C)n1 [Example 15]
Unit Text: nM
IC50: 41

Molecule: Cc1ncc(OC[C@@]2(c3ccccc3)C[C@H]2C(=O)Nc2ccccc2F)c(C)n1 [Example 78]
Unit Text: nM
IC50: 94

Molecule: Cc1ncc(OCC2(c3ccccc3F)CC2C(=O)Nc2ccc(Cl)cn2)c(C)n1 (stereo not shown) [Example 262]
Unit Text: nM
IC50: 51

Molecule: Cc1ncc(OC[C@@]2(c3ccc(F)c(F)c3)C[C@H]2C(=O)Nc2ccc(Cl)cn2)c(C)n1 [Example 168]
Unit Text: nM
IC50: 4

Molecule: COCc1nc(C)ncc1OC[C@@]1(c2cc(F)cc(OC)c2)C[C@H]1C(=O)Nc1cccc(F)c1 [Example 236]
Unit Text: nM
IC50: 5

Exercise: What does the data say about its IC50? Entry: Cc1ncc(OCC2(c3cccc(F)c3F)CC2C(=O)Nc2ccc(F)cn2)c(C)n1 (stereo not shown) [Example 162]
Solution: 13

Exercise: Query: IC50; subject: COCc1nc(C)ncc1OC[C@@]1(c2ccc(F)cc2)C[C@H]1C(=O)Nc1ccc(F)cn1 [Example 202]
Solution: 2

Exercise: Fill in the blank: the reported IC50 of Cc1ncc(OCC2(c3ccccc3C)CC2C(=O)Nc2ccc(F)cn2)c(C)n1 (stereo not shown) [Example 179] is ____.
Solution: 29

---

Target: OX1 (Homo sapiens, UniProt O43613)
Sequence (O43613 1-425): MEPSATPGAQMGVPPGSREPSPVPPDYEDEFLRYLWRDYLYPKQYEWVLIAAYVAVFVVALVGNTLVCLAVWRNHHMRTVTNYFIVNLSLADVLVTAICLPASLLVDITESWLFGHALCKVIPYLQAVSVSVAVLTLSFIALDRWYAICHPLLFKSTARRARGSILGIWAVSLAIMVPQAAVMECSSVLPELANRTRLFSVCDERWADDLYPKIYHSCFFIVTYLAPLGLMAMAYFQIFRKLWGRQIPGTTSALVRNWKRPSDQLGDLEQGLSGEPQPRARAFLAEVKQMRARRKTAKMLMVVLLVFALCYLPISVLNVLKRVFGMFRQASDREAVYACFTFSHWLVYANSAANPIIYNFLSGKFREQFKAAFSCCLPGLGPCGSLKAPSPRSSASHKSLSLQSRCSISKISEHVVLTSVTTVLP
Assay: Measurement of orexin receptor-binding ability ([125I]-OX-A, cell membranes, OX1)
Parameters: expressed in transfected cells; host or cells: CHO cells (membrane preparation)
Readout Label: pIC50
Scale: negative log10 of molar concentration, which is what pIC50 denotes.

Worked cases, pIC50 given:
Molecule: Cc1nc(CO)ncc1OC[C@@]1(c2cccc(F)c2)C[C@H]1C(=O)Nc1ccc(F)cn1 [Example 323]
Result: 7.49

Molecule: Cc1ncc(OCC2(c3cccc(Cl)c3)CC2C(=O)Nc2cccnc2)c(C)n1 (centres unmarked) [Example 157]
Result: 6.40

Exercise: Name the recorded pIC50 for Cc1ncc(OCC2(c3ccccc3Cl)CC2C(=O)Nc2ccc(C#N)cn2)c(C)n1 (centres unmarked) [Example 153] .
Solution: 6.35

Exercise: Param item = COc1cc(NC(=O)[C@@H]2C[C@@]2(COc2cnc(C)nc2C)c2cccc(F)c2)ncc1F [Example 94] ; retrieve measured pIC50.
Solution: 8.55

Exercise: Please report the recorded pIC50 for Cc1ncc(OC[C@@]2(c3cccc(F)c3)C[C@H]2C(=O)Nc2ccc(F)cn2)c(C)n1 [Example 95] .
Solution: 7.87

Exercise: Could you tell me which pIC50 is on file for Cc1ncc(OC[C@@]2(c3cccc(F)c3)C[C@H]2C(=O)Nc2ccnc(F)c2)c(C)n1 [Example 97] ?
Solution: 6.98
